Answer each item with its documented IC50.
Target: Mouse 5-HT6 (Mus musculus)
Construct: expressed in transfected cells
Sequence (Q9R1C8 whole entry): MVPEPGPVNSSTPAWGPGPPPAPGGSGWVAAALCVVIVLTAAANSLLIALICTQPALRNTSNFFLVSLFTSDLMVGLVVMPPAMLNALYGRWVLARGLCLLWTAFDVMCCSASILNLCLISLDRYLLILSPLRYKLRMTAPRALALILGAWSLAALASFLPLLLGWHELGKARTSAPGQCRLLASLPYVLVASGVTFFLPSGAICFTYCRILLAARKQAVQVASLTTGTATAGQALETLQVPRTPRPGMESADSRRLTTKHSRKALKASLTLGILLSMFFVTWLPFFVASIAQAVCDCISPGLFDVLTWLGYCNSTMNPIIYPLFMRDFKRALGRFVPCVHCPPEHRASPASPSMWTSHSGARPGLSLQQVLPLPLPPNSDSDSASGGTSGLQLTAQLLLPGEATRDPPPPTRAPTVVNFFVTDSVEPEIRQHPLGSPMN
Assay: 5-HT6 receptor binding assay ([3H]5-HT displacement, SPA), mouse receptor
I only need the number, in nM, no unit after it.

Inquiry: So what does the record say about IC50 for O=S(=O)(c1ccc(OC(F)(F)F)cc1)n1cc(CCNCc2cccc(OCC(F)(F)C(F)F)c2)c2ccc(F)cc21 [Example 2] ?
Reply text: 211

Inquiry: So what does the record say about IC50 for O=S(=O)(c1ccc(F)cc1)n1cc(CCNCc2cccc(OCC(F)(F)C(F)F)c2)c2ccc(F)cc21 [Example 6] ?
Reply text: 21.6

Inquiry: So what does the record say about IC50 for CCS(=O)(=O)n1cc(CCNCc2cccc(OCC(F)(F)C(F)F)c2)c2ccc(F)cc21 [Example 13] ?
Reply text: 11.7

Inquiry: So what does the record say about IC50 for CS(=O)(=O)n1cc(CCNCc2cccc(OCC(F)(F)C(F)F)c2)c2ccc(F)cc21 [Example 12] ?
Reply text: 9.51
